Values from patent US20200200749A1

- subject-of-test: T1, EBOV GP (recombinant, full-length extracellular domain) (EBOV (Ebola Zaire), UniProt Q05320 33-650)
- T1 sequence: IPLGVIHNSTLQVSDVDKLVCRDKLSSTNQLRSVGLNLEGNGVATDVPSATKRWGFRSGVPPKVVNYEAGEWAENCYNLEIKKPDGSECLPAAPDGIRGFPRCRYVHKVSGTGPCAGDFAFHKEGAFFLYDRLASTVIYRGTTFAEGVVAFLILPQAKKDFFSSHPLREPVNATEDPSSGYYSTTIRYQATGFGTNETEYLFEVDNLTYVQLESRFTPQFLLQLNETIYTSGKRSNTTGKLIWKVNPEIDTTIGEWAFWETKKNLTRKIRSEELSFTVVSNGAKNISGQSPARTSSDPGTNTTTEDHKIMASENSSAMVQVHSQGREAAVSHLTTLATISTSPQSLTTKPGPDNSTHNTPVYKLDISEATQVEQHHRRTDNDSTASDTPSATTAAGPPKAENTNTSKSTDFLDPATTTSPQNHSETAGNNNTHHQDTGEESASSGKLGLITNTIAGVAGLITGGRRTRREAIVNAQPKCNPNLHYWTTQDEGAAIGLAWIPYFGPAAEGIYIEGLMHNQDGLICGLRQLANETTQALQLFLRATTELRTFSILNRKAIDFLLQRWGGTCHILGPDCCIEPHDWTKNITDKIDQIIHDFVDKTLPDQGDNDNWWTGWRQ
- protocol-notes: ELISA, GP coated on plate, mAb serially diluted
quantity-kind: EC50 (µg/mL)

EBOV63 (antibody, V domains shown) VH: EVQLVESGGGLVKPGGSLRLSCAASGFTLNFYNMNWVRQAPGKGLEWVSSISSSSNYIYYADSVKGRFTISRDNARKSLYLQMNSLRAEDTAVYYCARDFVQLLIPQRDEWQGVHDYYGMDVWGQGTLVTVSS VL: EIVLTQSPGTLSLSPGGRATLSCRASQSVSNSYLAWYQQKPGQAPRLLIYGASSRATGIPDRFSGSGSGTDFILTISRLEPEDFAVYYCQHYGSSQLTFGGGTKVEIK: 283
